# target.or.system: GST-Bcl-B (Homo sapiens)
# Sequence (Q9HD36 1-182 limits assumed): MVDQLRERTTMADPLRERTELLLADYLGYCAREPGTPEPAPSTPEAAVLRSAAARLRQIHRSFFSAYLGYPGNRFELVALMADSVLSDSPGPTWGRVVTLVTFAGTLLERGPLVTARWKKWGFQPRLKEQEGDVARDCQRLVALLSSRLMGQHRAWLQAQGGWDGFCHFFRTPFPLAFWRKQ
# experiment: Bcl-B/FITC-TR3-r8 fluorescence polarization competition (displacement) assay, HTS and dose-response
# condition.description: Table 8, NCI Structural library; Binding Assay, FP; Concentration 0.02 uM
F Ratio values for the molecules below.

molecule	value.observed
O=S(=O)(O)c1ccc2cc(/N=N/c3cc(S(=O)(=O)O)c4cccnc4c3O)ccc2c1	0.3822
Oc1c(C(O)(c2ccccc2)c2ccc3ccccc3c2O)ccc2ccccc12	0.7704
COC1/C2=C(\O)C3(C)Oc4c5c(O)c6c(O)c(c(CN(C)C)c(O)c6c4C3=O)NC(=O)/C(C)=C\C=C/CC(O)C(C)C(O5)C(C)C(OC2=O)C1C (stereo not shown)	0.9609

Please examine the following record next.
Look up F Ratio of C[n+]1c(/C=C/c2ccc(O)c3ncccc23)[se]c2ccccc21 and report it.
0.09444

* * *

# target.or.system: GST-Bcl-B (Homo sapiens)
# Sequence (Q9HD36 1-182 limits assumed): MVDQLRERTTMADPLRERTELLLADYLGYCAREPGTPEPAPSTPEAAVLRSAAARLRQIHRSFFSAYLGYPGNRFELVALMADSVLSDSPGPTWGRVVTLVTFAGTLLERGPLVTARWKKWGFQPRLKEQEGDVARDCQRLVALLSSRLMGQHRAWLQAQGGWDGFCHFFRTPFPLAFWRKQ
# experiment: Bcl-B/FITC-TR3-r8 fluorescence polarization competition (displacement) assay, HTS and dose-response
# condition.description: Table 7, NCI Mechanistic library; Binding Assay, FP; Concentration 0.02 uM
Recorded F Ratio values for a group of compounds are listed next.
Lab note: write the figure by itself, no unit.

// known answers, use as guide
compound	target.or.system	F Ratio
O=C1OC(c2ccccc2)=N/C1=C\c1ccc(N(CCCl)CCCl)cc1	GST-Bcl-B (Homo sapiens)	1.2733
O=S(=O)(O)c1cc(/N=N/c2cc(S(=O)(=O)O)c3cccnc3c2O)ccc1/C=C/c1ccc(/N=N/c2cc(S(=O)(=O)O)c3cccnc3c2O)cc1S(=O)(=O)O	GST-Bcl-B (Homo sapiens)	0.04471
Cc1cc2c(c3oc(C4OC4C4OC4C)cc(=O)c13)C(=O)c1c(O)c(C3CC(C)(N(C)C)C(O)C(C)O3)cc(C3CC(N(C)C)C(O)C(C)O3)c1C2=O (stereo not shown)	GST-Bcl-B (Homo sapiens)	0.1099
CC(=O)O.Cc1c2cc[n+](CCN3CCCCC3)cc2c(C)c2c1[nH]c1ccc(O)cc12	GST-Bcl-B (Homo sapiens)	0.275
c1ccc2c(NCCCCCCCCNc3c4ccccc4nc4ccccc34)c3ccccc3nc2c1	GST-Bcl-B (Homo sapiens)	0.2008

Give reported F Ratio value for CCN(CCO)CCNc1ccc(C)c2sc3ccccc3c(=O)c12
0.6411

Please list F Ratio recorded for the compound CCN1C=C/C(=C\C=C\c2cc[n+](CC)c3ccccc23)C2C=CC=CC21 (stereo not shown)
0.2486
